# Tested on: Escherichia coli IAI1
# METHOD_DESCRIPTION: fold change of Putrescine concentration vs plate DMSO controls (fold change (ratio)); higher = more amine produced, active = hit call of the paper (significant change in both replicates, either direction)
# EXPERIMENTAL_CONDITIONS: incubation time: 27 h, anaerobic, 37 °C
Counter-ions that a name gives are not always drawn.
RECORDED_METRIC: fold change of Putrescine concentration
Enter the number alone.

Some entries whose results are on file:
N=C(N=C(N)N)N1CCOCC1 [Moroxidine hydrochloride] (20 µM)	0.989
O=C(CCCCCCC(=O)Nc1ccccc1)NO [Vorinostat] (20 µM)	1.11
CC(C)(C)NCC(O)CSc1nc(-c2ccc(C(N)=O)s2)cs1 (stereo unspecified) [Arotinolol hydrochloride] (20 µM)	0.978
CN(c1nccc(=O)[nH]1)C1CCN(c2nc3ccccc3n2Cc2ccc(F)cc2)CC1 [Mizolastine] (20 µM)	0.986
Nc1ccc(S(N)(=O)=O)cc1 [Sulfanilamide] (20 µM)	0.908

*Q* Given the compound CCOC(=O)c1ccc(C#Cc2ccc3c(c2)C(C)(C)CCS3)nc1 [Tazarotene] (20 µM) , write its reported fold change of Putrescine concentration.
*A* 0.958

*Q* Given the compound CC1CCc2c(N3CCC(O)CC3)c(F)cc3c(=O)c(C(=O)O)cn1c23 (stereo unspecified) [Nadifloxacin] (20 µM) , write its reported fold change of Putrescine concentration.
*A* 0.763

*Q* Given the compound COC(=O)C1=C(C)NC(C)=C(C(=O)OCC(C)C)C1c1ccccc1[N+](=O)[O-] (stereo unspecified) [Nisoldipine] (20 µM) , write its reported fold change of Putrescine concentration.
*A* 1.1

*Q* Given the compound Clc1ccc(COC(Cn2ccnc2)c2ccc(Cl)cc2Cl)cc1 (stereo unspecified) [Econazole nitrate] (20 µM) , write its reported fold change of Putrescine concentration.
*A* 1.01

*Q* Given the compound CN1CCCCC1CCN1c2ccccc2Sc2ccc([S+](C)[O-])cc21 (stereo unspecified) [Mesoridazine besylate] (20 µM) , write its reported fold change of Putrescine concentration.
*A* 1

*Q* Given the compound Cc1cn([C@H]2C=C[C@@H](CO)O2)c(=O)[nH]c1=O [Stavudine] (20 µM) , write its reported fold change of Putrescine concentration.
*A* 0.927
